- Measurement target: human natriuretic peptide receptor B (NPR-B) (human) (UniProt P20594)
- Sequence (P20594 23-1047): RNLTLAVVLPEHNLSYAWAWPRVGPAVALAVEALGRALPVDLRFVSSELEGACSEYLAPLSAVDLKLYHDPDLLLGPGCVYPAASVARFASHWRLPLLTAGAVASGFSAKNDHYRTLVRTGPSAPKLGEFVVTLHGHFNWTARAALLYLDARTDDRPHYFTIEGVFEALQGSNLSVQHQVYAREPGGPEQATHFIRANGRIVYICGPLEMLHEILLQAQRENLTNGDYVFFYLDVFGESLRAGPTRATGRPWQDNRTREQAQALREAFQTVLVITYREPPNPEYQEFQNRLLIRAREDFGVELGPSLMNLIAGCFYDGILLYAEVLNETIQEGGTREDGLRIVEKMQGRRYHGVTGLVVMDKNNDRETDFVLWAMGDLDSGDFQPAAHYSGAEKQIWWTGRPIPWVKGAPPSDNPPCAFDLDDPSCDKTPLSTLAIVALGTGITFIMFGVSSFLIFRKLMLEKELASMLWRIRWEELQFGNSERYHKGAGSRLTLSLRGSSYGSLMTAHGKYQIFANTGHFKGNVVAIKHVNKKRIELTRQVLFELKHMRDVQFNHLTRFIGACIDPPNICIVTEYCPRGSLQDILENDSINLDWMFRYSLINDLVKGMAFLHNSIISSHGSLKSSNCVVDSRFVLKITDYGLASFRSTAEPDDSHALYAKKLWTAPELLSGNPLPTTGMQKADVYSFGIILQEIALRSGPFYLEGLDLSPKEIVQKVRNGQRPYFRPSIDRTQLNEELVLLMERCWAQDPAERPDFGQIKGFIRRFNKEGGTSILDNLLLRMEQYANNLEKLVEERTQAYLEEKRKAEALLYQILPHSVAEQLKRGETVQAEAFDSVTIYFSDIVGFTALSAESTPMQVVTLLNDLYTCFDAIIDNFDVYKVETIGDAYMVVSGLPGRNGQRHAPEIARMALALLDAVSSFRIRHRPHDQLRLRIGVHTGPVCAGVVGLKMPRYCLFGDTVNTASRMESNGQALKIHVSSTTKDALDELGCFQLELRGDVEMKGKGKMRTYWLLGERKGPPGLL
- Experimental details: cell-based or functional assay
Where Rescue Ratio Average equals or exceeds 60, the correct label is rule met; where it does not, the label is rule not met.

Solved entries (count: 3):
query: Is it the case that EEEEEESGGGGSGGGQGANQQGLSKGCFGLKLDRIGSMSGLGC [C5(E6) [BC5]] has Rescue Ratio Average reaching or exceeding 60?
result: rule met

query: Is it the case that GLSKGCFGLKLDRIGSMSGLGC [human CNP22] has Rescue Ratio Average reaching or exceeding 60?
result: rule not met

query: Is it the case that EEEEEESGGGGSGGGKGANKQGLSKGCFGLKLDRIGSMSGLGC [C6(E6) [BC6]] has Rescue Ratio Average reaching or exceeding 60?
result: rule met

New cases:
query: Is it the case that EEEEEEHGPQGQEHPNARKYKGANKKGLSKGCFGLKLDRIGSMSGLGC [KA1(E6)] has Rescue Ratio Average reaching or exceeding 60?
result: rule not met

query: Is it the case that EEEEEESGGGGSGGGKGANQQGLSKGCFGLKLDRIGSMSGLGC [C9(E6) [BC9]] has Rescue Ratio Average reaching or exceeding 60?
result: rule met

query: Is it the case that EEEEEEHKLRGQEHPNARKYKGANKKGLSKGCFGLKLDRIGSMSGLGC [KB1(E6)] has Rescue Ratio Average reaching or exceeding 60?
result: rule not met
